assay: Quantitative cytotoxicity assay; assay type: cell-based
recorded-metric: selectivity ratio
Give a plain numeric answer without units written out.

The reported selectivity ratio of the compound O=C(Cc1cccs1)Nc1nc2c(s1)CCCC2 [compound 4256670] was 68

Value source: paper PMC2556223
